FYI, the data here is from patent US10807985B2.

Listed below: pIC50 values for each entry.
Molecular target: PDGFRA D842V (Homo sapiens (Human), UniProt P16234, D842V)
Sequence (P16234 24-1089 D842V): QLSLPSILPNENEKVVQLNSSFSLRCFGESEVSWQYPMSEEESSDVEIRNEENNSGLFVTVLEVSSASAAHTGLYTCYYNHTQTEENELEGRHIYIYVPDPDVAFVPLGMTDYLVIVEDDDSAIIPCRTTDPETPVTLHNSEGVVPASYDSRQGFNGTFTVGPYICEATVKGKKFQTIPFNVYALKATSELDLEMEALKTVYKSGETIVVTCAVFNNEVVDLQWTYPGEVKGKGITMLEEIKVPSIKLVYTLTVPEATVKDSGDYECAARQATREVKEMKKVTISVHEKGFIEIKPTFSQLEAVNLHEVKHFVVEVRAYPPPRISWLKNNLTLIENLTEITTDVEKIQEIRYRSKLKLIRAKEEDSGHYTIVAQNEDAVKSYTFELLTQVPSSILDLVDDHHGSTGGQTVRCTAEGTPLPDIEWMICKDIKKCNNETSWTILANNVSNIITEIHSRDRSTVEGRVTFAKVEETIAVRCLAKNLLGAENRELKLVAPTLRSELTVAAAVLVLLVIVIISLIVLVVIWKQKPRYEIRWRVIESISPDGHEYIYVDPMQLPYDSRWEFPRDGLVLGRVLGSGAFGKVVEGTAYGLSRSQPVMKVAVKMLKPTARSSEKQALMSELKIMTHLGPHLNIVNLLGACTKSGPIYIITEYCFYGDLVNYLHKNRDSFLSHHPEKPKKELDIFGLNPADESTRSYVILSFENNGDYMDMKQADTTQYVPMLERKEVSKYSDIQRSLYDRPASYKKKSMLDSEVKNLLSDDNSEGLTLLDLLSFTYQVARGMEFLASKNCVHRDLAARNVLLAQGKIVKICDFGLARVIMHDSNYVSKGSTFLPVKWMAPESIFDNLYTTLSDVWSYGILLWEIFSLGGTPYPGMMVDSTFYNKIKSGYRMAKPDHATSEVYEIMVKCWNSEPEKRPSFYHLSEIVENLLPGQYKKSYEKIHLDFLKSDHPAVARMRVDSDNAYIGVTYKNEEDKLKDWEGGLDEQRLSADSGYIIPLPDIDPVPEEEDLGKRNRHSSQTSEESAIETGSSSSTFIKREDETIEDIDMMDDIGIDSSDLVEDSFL
Experiment: PDGFRA D842V assay at Km (Caliper electrophoretic mobility shift)
Details: biochemical, 15 uM ATP (Km), 90 minutes at 25 C; read-out: INH PDFGRA D842V
pIC50: −log10 of the molar value.

[Q] Provide only the value of recorded pIC50 for Cn1cc(-c2cc3c(N4CCN(c5ncc([C@](C)(N)c6ccccc6)cn5)CC4)ncnn3c2)cn1 [Compound 21]
[A] > 9.00

----------
Molecular target: KIT D816V kinase activity (KIT autophosphorylation at tyrosine 719) in HMC1.2 cells (Homo sapiens (Human), UniProt P10721, D816V/V560G)
Sequence (P10721 26-976 V560G/D816V): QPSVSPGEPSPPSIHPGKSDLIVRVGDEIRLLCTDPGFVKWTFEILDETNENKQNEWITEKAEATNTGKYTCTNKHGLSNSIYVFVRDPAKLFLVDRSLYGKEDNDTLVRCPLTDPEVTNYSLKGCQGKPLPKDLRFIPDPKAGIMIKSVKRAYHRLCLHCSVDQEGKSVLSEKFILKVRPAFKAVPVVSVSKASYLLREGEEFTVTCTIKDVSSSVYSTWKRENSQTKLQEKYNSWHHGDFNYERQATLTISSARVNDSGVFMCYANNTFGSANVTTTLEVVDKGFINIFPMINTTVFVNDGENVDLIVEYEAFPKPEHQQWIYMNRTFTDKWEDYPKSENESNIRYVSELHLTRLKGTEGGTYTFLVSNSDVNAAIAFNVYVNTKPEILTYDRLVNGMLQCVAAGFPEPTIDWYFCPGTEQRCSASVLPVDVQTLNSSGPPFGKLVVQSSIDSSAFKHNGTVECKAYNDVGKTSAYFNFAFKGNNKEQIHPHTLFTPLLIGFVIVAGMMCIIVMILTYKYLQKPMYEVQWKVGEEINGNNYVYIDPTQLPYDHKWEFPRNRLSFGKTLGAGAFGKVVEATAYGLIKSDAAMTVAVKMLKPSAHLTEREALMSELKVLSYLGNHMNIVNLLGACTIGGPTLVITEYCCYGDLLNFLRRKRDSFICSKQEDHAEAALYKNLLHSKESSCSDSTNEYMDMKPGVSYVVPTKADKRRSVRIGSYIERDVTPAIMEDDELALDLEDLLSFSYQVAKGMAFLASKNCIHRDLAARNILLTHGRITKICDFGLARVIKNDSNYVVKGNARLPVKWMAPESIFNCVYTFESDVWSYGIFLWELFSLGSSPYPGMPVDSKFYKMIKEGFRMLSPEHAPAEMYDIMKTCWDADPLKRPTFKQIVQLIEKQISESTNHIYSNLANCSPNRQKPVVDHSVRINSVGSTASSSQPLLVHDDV
Assay: HMC1.2 autophosphorylation assay (phospho-Y719 c-KIT AlphaLISA)
Settings: HMC1.2 mast cell leukemia cell line (KIT V560G, D816V), 90 minutes compound; read-out: INH-KIT-PHOS-HMC1.2
Listed below: IC50 values for each entry.

Here are 5 compounds together with their reported answers.
* Cn1cc(-c2cc3c(N4CCN(c5ncc([C@](O)(c6ccc(F)cc6)C(F)F)cn5)CC4)ncnn3c2)cn1 | 0.1 to 1 µM
* C[C@](O)(c1ccc(F)cc1)c1cnc(N2CCN(c3ncnn4cc(-c5cn[nH]c5)cc34)CC2)nc1 | < 0.05 µM
* Cn1cc(-c2cc3c(N4CCN(c5ncc([C@](C)(O)c6ccc(F)cn6)cn5)CC4)ncnn3c2)cn1 | 1 to 10 µM
* Cn1cc(-c2cc3c(N4CCN(c5ncc([C@@](C)(O)c6c(F)cccc6F)cn5)CC4)ncnn3c2)cn1 | < 0.05 µM
* COc1cccc(-c2cc3c(N4CCN(c5ncc([C@@](C)(O)c6ccc(F)cc6)cn5)CC4)ncnn3c2)c1 | 0.05 to 0.1 µM

[Q] Provide only the value of recorded IC50 for Cn1cc(-c2cc3c(N4CCN(c5ncc([C@@](C)(O)c6c(F)cc(F)cc6F)cn5)CC4)ncnn3c2)cn1
[A] < 0.05 µM

[Q] Provide only the value of recorded IC50 for Cc1ncc(-c2cc3c(N4CCN(c5ncc([C@](C)(O)c6ccc(F)cc6)cn5)CC4)ncnn3c2)s1
[A] 0.1 to 1 µM
